# EXPERIMENTAL SYSTEM: Adenosine receptor A1 (Homo sapiens) (UniProt P30542)
# Sequence (whole entry): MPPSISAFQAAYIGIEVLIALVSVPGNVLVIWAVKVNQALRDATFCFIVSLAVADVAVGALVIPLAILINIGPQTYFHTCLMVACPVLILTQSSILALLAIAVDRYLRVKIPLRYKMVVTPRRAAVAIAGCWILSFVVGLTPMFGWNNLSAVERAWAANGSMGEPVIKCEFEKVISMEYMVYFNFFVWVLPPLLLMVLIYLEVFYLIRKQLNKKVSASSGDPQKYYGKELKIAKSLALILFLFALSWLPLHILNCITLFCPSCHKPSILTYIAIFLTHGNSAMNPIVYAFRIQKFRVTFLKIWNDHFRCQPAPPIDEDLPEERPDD
# TEST DESCRIPTION: Allosteric enhancer activity at human adenosine A1 receptor expressed in CHO cell membranes assessed as shift in [3H]CCPA Bmax level at 10 uM by saturation binding assay
Each entry below lists one item and its recorded fold change (FC) value.
Just the number, please, no unit attached.

Example molecules with recorded fold change (FC):
INSERT INTO results (record_smiles, experimental_system, outcome_measure, observed_measurement) VALUES
  ('CC(C)(C)Cc1c(C#Cc2ccccc2)sc(N)c1C(=O)c1ccc(Cl)cc1', 'Adenosine receptor A1 (Homo sapiens) (UniProt P30542)', 'fold change (FC)', 9.5),
  ('Nc1sc(C#Cc2ccccc2)c(CN2CCN(c3ccc(F)cc3)CC2)c1C(=O)c1ccc(Cl)cc1', 'Adenosine receptor A1 (Homo sapiens) (UniProt P30542)', 'fold change (FC)', 3.9),
  ('Nc1sc(C#Cc2ccccc2)c(CN2CCN(c3ccc(Cl)c(Cl)c3)CC2)c1C(=O)c1ccc(Cl)cc1', 'Adenosine receptor A1 (Homo sapiens) (UniProt P30542)', 'fold change (FC)', 2.1);

Exercise: Name the recorded fold change (FC) for Nc1sc(CCc2ccccc2)cc1C(=O)c1ccc(Cl)cc1 .
Solution: 1.7

Exercise: Here is the next molecule: COc1ccc(C#Cc2sc(N)c(C(=O)c3ccc(Cl)cc3)c2CC(C)(C)C)cc1OC
Solution: 7.1

Exercise: Here is the next molecule: Cc1ccc(-c2sc(N)c(C(=O)c3ccc(Cl)cc3)c2CC(C)(C)C)cc1
Solution: 6.4

Exercise: Here is the next molecule: Cc1sc(N)c(C(=O)c2cccc(C(F)(F)F)c2)c1C
Solution: 1.3
